Recorded values, source patent US20230203177A1.

molecular target: T1, soluble human CD40 extracellular domain (human, UniProt P25942 21-193); experiment: SPR, Ab captured from supernatant on protein A, hCD40 ECD analyte
T1 construct: Produced in house; also called hCD40; soluble hCD40 extracellular domain
T1 sequence (P25942 21-193 limits assumed): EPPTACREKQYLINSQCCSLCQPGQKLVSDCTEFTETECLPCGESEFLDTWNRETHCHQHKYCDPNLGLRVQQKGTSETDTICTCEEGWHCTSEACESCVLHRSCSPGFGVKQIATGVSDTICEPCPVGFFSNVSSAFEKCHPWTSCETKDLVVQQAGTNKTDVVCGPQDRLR
measurementName: Kd (nM)
Write the value in nM as a bare number.

Please give the measured Kd for this binder: M63 (HC-R67Q / LC-K45Q,R54Q,R61Q) (antibody, human IgG1, kappa, V domains shown, IgG1-P238K; also called HC15/LC4) VH: QVQLVQSGAEVKKPGSSVKVSCKASGYAFTSYWMHWVRQAPGQGLEWMGQINPTTGRSQYNEKFKTQVTITADKSTSTAYMELSSLRSEDTAVYYCARWGLQPFAYWGQGTLVTVSS VL: DIQMTQSPSFLSASVGDRVTITCKASQDVSTAVAWYQQKPGKAPQLLIYSASYQYTGVPSQFSGSGSGTDFTLTISSLQPEDFATYYCQQHYSTPWTFGGGTKVEIKR
2.4

Please give the measured Kd for this binder: M19 (HC-K12Q,K13Q,K23Q / LC-K45Q) (antibody, human IgG1, kappa, V domains shown, IgG1-P238K; also called HC3/LC2) VH: QVQLVQSGAEVQQPGSSVKVSCQASGYAFTSYWMHWVRQAPGQGLEWMGQINPTTGRSQYNEKFKTRVTITADKSTSTAYMELSSLRSEDTAVYYCARWGLQPFAYWGQGTLVTVSS VL: DIQMTQSPSFLSASVGDRVTITCKASQDVSTAVAWYQQKPGKAPQLLIYSASYRYTGVPSRFSGSGSGTDFTLTISSLQPEDFATYYCQQHYSTPWTFGGGTKVEIKR
3.8
